Origin of values: patent US20070105779A1

The binders listed here are annotated with their Relative binding.
SYSTEM TESTED: HLA-A2
ASSAY TEXT: functional competition vs tyrosinase 368-376 on T2 cells; relative to SEQ ID NO: 17
Kindly provide the number alone.

binder="AAAPKAFYA (modifications not checked) [… (SEQ ID NO: 5)]" test_value=1
binder="AAGPKIFYA (modifications not checked) [… (SEQ ID NO: 2)]" test_value=0.7

The binder listed as AAAAKIFYA (modifications not checked) [… (SEQ ID NO: 3)] shows Relative binding equal to 1.5

Lab note: measured Relative binding of AAAPKIFYA (modifications not checked) [… (SEQ ID NO: 1)] was 10

Record summary for AAAPAIFYA (modifications not checked) [… (SEQ ID NO: 4)] : reported Relative binding = 9
